- System: IGROV1 complex spheroids (HUVEC, MSC), viability % test/control
- Assay notes: Anticancer human tumor IGROV1 cell line growth inhibition [GQUAD];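 also: spheroids exposed to compounds for 7 days before readout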
- Condition parameters: curve of first compound; second compound 0.0316 µM
Measurement type: IC50 (nM)
Give bare numbers, in nM.

Compound	IC50 / nM
CC(C)(O)C1CCC(Nc2ccc3ncc(-c4cccc(C(F)(F)F)c4)n3n2)CC1 (stereo not given) + Cc1[nH]c2ccc(F)cc2c1-c1nc2c3cccnc3c3ncccc3c2[nH]1	2010

Now consider a different compound.
Task: Give the measured IC50 for CC[C@@]1(O)C(=O)OCc2c1cc1n(c2=O)Cc2cc3c(CN(C)C)c(O)ccc3nc2-1 + Cc1cnc(CNC(=O)c2c(=O)c3ccc(N4CCCN(C)CC4)nc3n3c2sc2ccccc23)cn1
Output: 13.3
